Target: T1, human IL-23R (human, UniProt Q5VWK5 24-629)
T1 sequence: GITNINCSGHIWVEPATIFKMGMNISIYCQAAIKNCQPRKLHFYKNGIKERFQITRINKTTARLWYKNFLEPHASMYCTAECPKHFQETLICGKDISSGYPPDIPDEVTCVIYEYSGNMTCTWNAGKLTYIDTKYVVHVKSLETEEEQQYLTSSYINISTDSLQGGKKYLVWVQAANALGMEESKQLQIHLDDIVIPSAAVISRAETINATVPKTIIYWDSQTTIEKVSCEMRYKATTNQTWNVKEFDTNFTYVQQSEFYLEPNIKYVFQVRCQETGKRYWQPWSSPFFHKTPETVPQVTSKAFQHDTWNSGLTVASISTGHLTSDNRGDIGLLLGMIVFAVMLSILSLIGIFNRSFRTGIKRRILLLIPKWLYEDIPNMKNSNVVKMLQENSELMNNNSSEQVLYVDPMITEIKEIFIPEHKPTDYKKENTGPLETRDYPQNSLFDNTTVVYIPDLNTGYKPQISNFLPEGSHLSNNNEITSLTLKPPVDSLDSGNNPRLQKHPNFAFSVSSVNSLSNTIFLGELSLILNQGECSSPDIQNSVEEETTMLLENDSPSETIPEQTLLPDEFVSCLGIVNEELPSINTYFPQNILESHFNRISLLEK
Assay: cell-based or functional assay
measurement label: IC50, IL-23-stimulated STAT3 phosphorylation in CD4 lymphocytes of human whole blood (µg/mL)

{"binder": "fully human antibody 30-15 (antibody, human IgG1, kappa, V domains shown, Human Ig gamma1 / human kappa constant regions; also called 30-15 (fully human); fully human 30-15 antibody) VH: QVQLVQSGAEVKKPGASMKVSCKVSGYTLNELSIHWVRQAPGKGLEWMGGFDPEHGETVYAQNFQDRVTLTEDTSTDTSYMGLNNLRSDDTAVYYCAAESYGDYEFWGQGTLVTVSS VL: DIQMTQSPSSVSASVGDRVTITCRASQGINNWLAWYQQKPGKAPKVLIYTASSLQSGVPSRFSGSGSGTDFTLTISSLQPEDFATYYCQQANSHPWTFGQGTKVEIKR", "val": 0.013}
